Provide the reported IC50 of each item.

IC50 value, target or system West Nile Virus (WNV) NS2B-NS3 protease (West Nile virus, UniProt Q9Q6P4), for COC(=O)[C@H]1CC[C@H]([n+]2cc([N-]C(=O)Nc3cc(NC(=O)Cc4ccccc4C)cc(C(F)(F)F)c3)on2)CC1 [Example 227] : < 100 nM

IC50 value, target or system West Nile Virus (WNV) NS2B-NS3 protease (West Nile virus, UniProt Q9Q6P4), for Cc1ncnc(C)c1-c1ccc(C[n+]2cc([N-]C(=O)Nc3cccc(C(F)(F)F)c3)on2)nn1 [Example 184] : 100 to 1000 nM

IC50 value, target or system West Nile Virus (WNV) NS2B-NS3 protease (West Nile virus, UniProt Q9Q6P4), for CN(C)C[C@H]1CC[C@H]([n+]2cc([N-]C(=O)Nc3cc(NC(=O)[C@H](F)c4ccccc4F)cc(C(F)(F)F)c3)on2)CC1 (single isomer, unassigned) [Example 271] : < 100 nM

IC50 value, target or system West Nile Virus (WNV) NS2B-NS3 protease (West Nile virus, UniProt Q9Q6P4), for Cc1ccnc(C)c1-c1ccc(C[n+]2cc([N-]C(=O)Nc3ccnc(C(F)(F)F)c3)on2)cc1 [Example 263] : < 100 nM

IC50 value, target or system West Nile Virus (WNV) NS2B-NS3 protease (West Nile virus, UniProt Q9Q6P4), for Cc1ccccc1CC(=O)Nc1cc(NC(=O)[N-]c2c[n+](C3CCCC(CO)C3)no2)cc(C(F)(F)F)c1 (stereo not shown) [Example 265] : 100 to 1000 nM

IC50 value, target or system West Nile Virus (WNV) NS2B-NS3 protease (West Nile virus, UniProt Q9Q6P4), for O=C([N-]c1c[n+]([C@H]2CCC[C@@H](c3cncnc3)C2)no1)Nc1ccnc(C(F)(F)F)c1 [Example 220] : 100 to 1000 nM

IC50 value, target or system West Nile Virus (WNV) NS2B-NS3 protease (West Nile virus, UniProt Q9Q6P4), for CN1CCc2ccccc2C1C[n+]1cc([N-]C(=O)Nc2ccnc(C(F)(F)F)c2)on1 (racemic) [Example 181] : < 100 nM

IC50 value, target or system West Nile Virus (WNV) NS2B-NS3 protease (West Nile virus, UniProt Q9Q6P4), for Cc1ccccc1CC(=O)Nc1cc(NC(=O)[N-]c2c[n+]([C@H]3CC[C@H](CO)CC3)no2)cc(C(F)(F)F)c1 [Example 228] : 100 to 1000 nM

IC50 value, target or system West Nile Virus (WNV) NS2B-NS3 protease (West Nile virus, UniProt Q9Q6P4), for CN(C)C[C@H]1CC[C@H]([n+]2cc([N-]C(=O)Nc3cc(NC(=O)Cc4cccc(CC(N)=O)c4)cc(C(F)(F)F)c3)on2)CC1 [Example 162] : 100 to 1000 nM

IC50 value, target or system West Nile Virus (WNV) NS2B-NS3 protease (West Nile virus, UniProt Q9Q6P4), for COC(=O)c1ccc(NC(=O)[N-]c2c[n+](Cc3ccc(-c4c(C)ncnc4C)cc3)no2)cc1C(F)(F)F [Example 262] : 100 to 1000 nM

IC50 value, target or system West Nile Virus (WNV) NS2B-NS3 protease (West Nile virus, UniProt Q9Q6P4), for Cc1ccccc1CC(=O)Nc1cc(NC(=O)[N-]c2c[n+]([C@H]3CCC[C@@H](CN(C)C)C3)no2)cc(C(F)(F)F)c1 [Example 213] : 100 to 1000 nM

IC50 value, target or system West Nile Virus (WNV) NS2B-NS3 protease (West Nile virus, UniProt Q9Q6P4), for Cc1ccccc1CC(=O)Nc1cc(NC(=O)[N-]c2c[n+]([C@H]3CC[C@H](CN(C)C)CC3)no2)cc(C(F)(F)F)c1 [Example 171] : < 100 nM

IC50 value, target or system West Nile Virus (WNV) NS2B-NS3 protease (West Nile virus, UniProt Q9Q6P4), for Cc1ccccc1CC(=O)Nc1cc(NC(=O)[N-]c2c[n+]([C@@H]3CCC[C@@H](O)C3)no2)cc(C(F)(F)F)c1 [Example 215] : < 100 nM

IC50 value, target or system West Nile Virus (WNV) NS2B-NS3 protease (West Nile virus, UniProt Q9Q6P4), for COc1ccccc1CC(=O)Nc1cc(NC(=O)[N-]c2c[n+](C3CCC(CN(C)C)CC3)no2)cc(C(F)(F)F)c1 (stereo not shown) [Example 153] : 100 to 1000 nM

IC50 value, target or system West Nile Virus (WNV) NS2B-NS3 protease (West Nile virus, UniProt Q9Q6P4), for CNC(=O)[C@H]1CC[C@H]([n+]2cc([N-]C(=O)Nc3cc(NC(=O)Cc4ccccc4C)cc(C(F)(F)F)c3)on2)CC1 [Example 251] : 100 to 1000 nM

IC50 value, target or system West Nile Virus (WNV) NS2B-NS3 protease (West Nile virus, UniProt Q9Q6P4), for CN(C)C[C@H]1CC[C@H]([n+]2cc([N-]C(=O)Nc3cc(NC(=O)Cc4cccc(Cl)c4)cc(C(F)(F)F)c3)on2)CC1 [Example 176] : 100 to 1000 nM

IC50 value, target or system West Nile Virus (WNV) NS2B-NS3 protease (West Nile virus, UniProt Q9Q6P4), for CN1CCc2ccccc2C1C[n+]1cc([N-]C(=O)Nc2cc(NC(=O)Cc3ccccc3)cc(C(F)(F)F)c2)on1 (racemic) [Example 192] : 100 to 1000 nM

IC50 value, target or system West Nile Virus (WNV) NS2B-NS3 protease (West Nile virus, UniProt Q9Q6P4), for COc1ccc(NC(=O)[N-]c2c[n+](Cc3ccc(-c4c(C)ncnc4C)cc3)no2)cc1C(F)(F)F [Example 249] : 100 to 1000 nM

IC50 value, target or system West Nile Virus (WNV) NS2B-NS3 protease (West Nile virus, UniProt Q9Q6P4), for Cc1ncncc1[C@H]1CC[C@H](C[n+]2cc([N-]C(=O)Nc3ccnc(C(F)(F)F)c3)on2)CC1 [Example 241] : < 100 nM

The values you see were collected from patent EP4563146A1.
